# assayed_target: T1, TRKA protein with a histidine tag (human, UniProt P04629 33-423, limits assumed)
# T1 construct: it is put last here only for order; also called TRKA (50 µg/ml, 75 kDa, provided by HEC Labs); not shown: histidine tag
# T1 sequence (P04629 33-423 limits assumed): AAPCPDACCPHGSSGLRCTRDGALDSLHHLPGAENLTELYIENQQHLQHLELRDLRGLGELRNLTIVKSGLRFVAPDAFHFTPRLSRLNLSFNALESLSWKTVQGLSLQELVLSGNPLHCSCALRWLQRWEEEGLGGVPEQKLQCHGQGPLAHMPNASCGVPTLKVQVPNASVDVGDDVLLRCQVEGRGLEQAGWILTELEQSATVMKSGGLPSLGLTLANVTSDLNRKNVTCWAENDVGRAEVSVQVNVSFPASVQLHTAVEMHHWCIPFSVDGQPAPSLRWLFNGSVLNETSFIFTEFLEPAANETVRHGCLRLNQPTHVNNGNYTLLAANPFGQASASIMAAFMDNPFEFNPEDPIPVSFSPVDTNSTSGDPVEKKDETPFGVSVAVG
# procedure_summary: BLI (Fortebio Octet RED96), His-tagged TRKA on Ni-NTA sensor, antibody 80-2.93 nM

binder	koff / s⁻¹
4H4 chimeric antibody (antibody, human IgG4 S228P, kappa, F234A L235A, V domains shown, expressed in CHO cells) VH: EVQLQQSGPELVKPGASMKISCKASGYSFTGYTMNWVKQSHGKNLEWIGLINPYNGGTRYNQKFKGKATLTVDKSSSTAYMELLSLTSEDSAVYYCASSSYRNDGNWYFDVWGAGTTVTVSS VL: DIVMTQSPAIMSASPGEKVTMTCSASSSVSYMHWYQQKSGTSPKRWIYDTSKLASGVPARFSGSGSGTSYSLTISSMETEDAATYYCQQWSSNPPTFGGGTKLELKR	0.000234
27H3 chimeric antibody (antibody, human IgG4 S228P, kappa, F234A L235A, V domains shown, expressed in CHO cells) VH: QVQLQQSGAELMKPGASVKISCKTTGYRFSSYWIEWVKQRPGHGLEWLGEILPGRGIINYNENFRGKATFTADTSSNTAYVQLSSLTSEDSAVYFCARTDPPYFGVWGAGTTVTVSS VL: QAVVTQESALTTSPGETVTLTCRSSTGAVTISNYANWVQEKPDHLFTGLIGGTNNRPPGVPARFSGSLIGDKAALTITGAQTEDEAIYFCVLWYSNHWVFGGGTKLTVLR	0.000279
1B9 chimeric antibody (antibody, human IgG4 S228P, kappa, F234A L235A, V domains shown, expressed in CHO cells) VH: QVHLQQSGAELMKPGASVKISCKATGYTFNIYWIDWVKQRPGHGLEWIGEILPGSGNTHYNENFKGKATMTADTSSNTAYMQLTSLTSEDSAVYYCARTDGRGYFDYWGQGTTLTVSS VL: DIVLTQSPASLVVSLGQRATISCRTSKSVSSSAYSYMHWYQQKPGQPPKVLIYLASNLESGVPARFSGSGSGTDFTLNIHPVEEEDAATYYCQHSRELPFTFGSGTKLEIKR	0.000904
21E5 chimeric antibody (antibody, human IgG4 S228P, kappa, F234A L235A, V domains shown, expressed in CHO cells) VH: QVQLQQSGAELMKPGASMKISCKATGYTFSTYWIEWVKQRPGHGLEWIGENLPGRHITNYNEKFKGKATFTADTSSNTAYMQLSSLTSEDSAVYYCARGRGTYYFDYWGQGTPLTVSS VL: DIVMTQAAFSTPVTLGTSASISCRSSQSLLHSNGITYLYWYLQKPGQSPQLLIYQMSNLASGVPDRFSSSGSGTDFTLRISRVEAEDVGVYYCAQNLEFPFTFGSGTKLEIKR	0.000175

Where these numbers come from: patent US20220204630A1
